B1: LINE1-full (parent)
chain: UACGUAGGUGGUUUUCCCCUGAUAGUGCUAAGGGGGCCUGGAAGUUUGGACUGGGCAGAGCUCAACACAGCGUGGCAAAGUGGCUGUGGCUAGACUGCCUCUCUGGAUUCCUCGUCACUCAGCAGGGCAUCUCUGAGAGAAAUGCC

Variants of: B1
Assay: self-cleavage, relative activity (ratio to wild type); higher = more cleavage; in vitro, sequencing; the parent is a self-cleaving ribozyme
outcomeMeasure: self-cleavage
Could you keep your reply to the number by itself?

mutationDescriptor: U13C U81C
self-cleavage: 1.05

**Q:** // Input: G105A A136G . Output its self-cleavage only.
**A:** 1.28

**Q:** // Input: U46C G139U . Output its self-cleavage only.
**A:** 1.7
